FYI, the data here is from patent US9901571B2.

# methodDescription: Half-life in human liver microsomes (HLM), HLM CLint
# Type: in vitro ADME
# assayContext: ratio between comparison compound 1 and the example
parameterMeasured: Ratio of HLM CLint over comparison 1

smilesData | observed
CN1N=C2CCN(C(=O)[C@@H](CCc3cc(CO)ccc3F)NC(=O)C(C)(C)N)C[C@@]2(Cc2ccccc2)C1=O | 2.9
CN1N=C2CCN(C(=O)[C@@H](CCc3ccc(CO)cc3Cl)NC(=O)C(C)(C)N)C[C@@]2(Cc2ccccc2)C1=O | 3.0
CN1N=C2CCN(C(=O)[C@@H](CCCc3cccc(C(F)(F)F)n3)NC(=O)C(C)(C)N)C[C@@]2(Cc2ccccc2)C1=O | 2.9
CC(C)(N)C(=O)N[C@H](CCc1ccc(F)cc1CO)C(=O)N1CCC2=NN(CC(F)(F)F)C(=O)[C@]2(Cc2ccccn2)C1 | 2.3

---

# methodDescription: Half-life in human liver microsomes (HLM), HLM CLint
# Type: in vitro ADME
# assayContext: human, human liver microsomes (XTreme 200); 1 microM test compound, 0.61 mg protein/mL HLM, pH 7.4, 37° C.; read-out: HLM CLint (clearance in human liver microsome)
parameterMeasured: CLint scaled at 1 microM (mL/min/kg)

// below: answered compounds
smilesData | CLint scaled at 1 microM [mL/min/kg]
CC(C)(N)C(=O)N[C@H](CCc1ccccc1)C(=O)N1CCC2=NN(CC(F)(F)F)C(=O)[C@]2(Cc2ccccn2)C1 | 51.5
CN1N=C2CCN(C(=O)[C@@H](CCCc3ccccc3CO)NC(=O)C(C)(C)N)C[C@@]2(Cc2ccccc2)C1=O | 48.5
CN1N=C2CCN(C(=O)[C@@H](CCc3ccccc3)NC(=O)C(C)(C)N)C[C@@]2(Cc2ccccc2)C1=O | 54.5
CN1N=C2CCN(C(=O)[C@@H](CCCc3cccc(C(F)(F)F)n3)NC(=O)C(C)(C)N)C[C@@]2(Cc2ccccc2)C1=O | 44.2
CN1N=C2CCN(C(=O)[C@@H](CCCc3ccccn3)NC(=O)C(C)(C)N)C[C@@]2(Cc2ccccc2)C1=O | 19.7
CN1N=C2CCN(C(=O)[C@@H](CCc3ccc(CO)cc3F)NC(=O)C(C)(C)N)C[C@@]2(Cc2ccccc2)C1=O | 21.7
CN1N=C2CCN(C(=O)[C@@H](CCc3ccc(CO)cc3Cl)NC(=O)C(C)(C)N)C[C@@]2(Cc2ccccc2)C1=O | 43.5
CN1N=C2CCN(C(=O)[C@@H](CCc3cc(CO)ccc3F)NC(=O)C(C)(C)N)C[C@@]2(Cc2ccccc2)C1=O | 44.6
CN1N=C2CCN(C(=O)[C@@H](CCCc3cccc(CO)c3)NC(=O)C(C)(C)N)C[C@@]2(Cc2ccccc2)C1=O | 53.5

A = CC(C)(N)C(=O)N[C@H](CCc1ccc(F)cc1CO)C(=O)N1CCC2=NN(CC(F)(F)F)C(=O)[C@]2(Cc2ccccn2)C1
B = CN1N=C2CCN(C(=O)[C@@H](CCCc3cccc(C(F)F)n3)NC(=O)C(C)(C)N)C[C@@]2(Cc2ccccc2)C1=O
Lab note: check whether A or B shows the higher recorded CLint scaled at 1 microM. // respond with label for picked entry
A

---

# methodDescription: Half-life in human liver microsomes (HLM), HLM CLint
# Type: in vitro ADME
# assayContext: ratio between comparison compound 1 and the example
parameterMeasured: Ratio of HLM CLint over comparison 1

// below: answered compounds
smilesData | observed
CN1N=C2CCN(C(=O)[C@@H](CCCc3cccc(C(F)F)n3)NC(=O)C(C)(C)N)C[C@@]2(Cc2ccccc2)C1=O | 3.6
CN1N=C2CCN(C(=O)[C@@H](CCCc3ccccn3)NC(=O)C(C)(C)N)C[C@@]2(Cc2ccccc2)C1=O | 6.6
CC(C)(N)C(=O)N[C@H](CCc1ccccc1)C(=O)N1CCC2=NN(CC(F)(F)F)C(=O)[C@]2(Cc2ccccn2)C1 | 2.5

a = CN1N=C2CCN(C(=O)[C@@H](CCCc3ccccc3CO)NC(=O)C(C)(C)N)C[C@@]2(Cc2ccccc2)C1=O
b = CN1N=C2CCN(C(=O)[C@@H](CCc3ccc(CO)cc3F)NC(=O)C(C)(C)N)C[C@@]2(Cc2ccccc2)C1=O
Lab note: check whether a or b shows the higher recorded Ratio of HLM CLint over comparison 1. // respond with label for picked entry
b
(b: 6.0, a: 2.7)
